The reported measurements were obtained from paper PMC6100075.

Test system: B16-F10 melanoma cells
Experiment: Total melanin content assay
Format: cell-based, Mus musculus (mouse)
Settings: Mus musculus, B16-F10; 15 μM; 72 h; relative to control; read-out: % Melanin Content
Known activity at 15 µM of a selection of molecules
Report the value in % with no unit label.

Sample answers from the record:
Molecule: O=C1C[C@@H](c2ccc(O)cc2)Oc2cc(O)cc(O)c21 [Compound 25, (2S)-Naringenin]
Measured On: B16-F10 melanoma cells
Value Units: %
Observed Result: 132
//
Molecule: COc1cc2c(cc1C1COc3cc(O)ccc3C1=O)OCO2 (stereo not drawn) [Compound 11, Onogenin]
Measured On: B16-F10 melanoma cells
Value Units: %
Observed Result: 134

Here is another molecule to look at.
Quick check: activity at 15 µM of COc1cc(OC)c(C2COc3cc(O)ccc3C2=O)cc1O (stereo not drawn) [Compound 12, Dalparvin] ? 134
